Source: patent US20180100026A1

target-system: T1, CAR-FITC (CD8 hinge), anti-FITC (FITC-E2 scFv) chimeric antigen receptor on T cells
T1 construct: FITC-E2 scFv, CD8 hinge and transmembrane region, 41BB and CD3 zeta; also called Anti FITC CAR-EC with CD8 hinge; anti-FITC CAR
T1 sequence (chain, as listed by the source mutant limits assumed): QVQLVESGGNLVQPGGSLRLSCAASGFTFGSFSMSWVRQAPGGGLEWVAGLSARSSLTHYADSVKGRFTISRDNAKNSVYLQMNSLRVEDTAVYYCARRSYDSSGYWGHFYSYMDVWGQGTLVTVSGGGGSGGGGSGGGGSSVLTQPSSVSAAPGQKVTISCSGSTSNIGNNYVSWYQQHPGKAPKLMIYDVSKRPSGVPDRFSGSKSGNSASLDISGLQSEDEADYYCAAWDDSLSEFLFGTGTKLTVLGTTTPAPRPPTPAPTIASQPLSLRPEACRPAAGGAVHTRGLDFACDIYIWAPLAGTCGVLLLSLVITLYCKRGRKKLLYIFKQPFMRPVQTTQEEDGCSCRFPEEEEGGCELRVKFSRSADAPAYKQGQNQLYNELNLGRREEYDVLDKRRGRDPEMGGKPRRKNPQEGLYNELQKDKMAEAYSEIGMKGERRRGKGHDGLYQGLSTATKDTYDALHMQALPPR
run-description: flow cytometry on anti-FITC CAR T cells, Alexa Fluor 647 anti-human IgG or anti-human kappa secondary antibody, MFI against concentration
measure-name: pEC50
Conceptually, pEC50 converts a concentration in mol/L into minus its log10.

anti-CD19 (FMC63) Fab A-FITC (light chain G68) (Fab, V domains shown, position 68 = pAzF conjugated with BCN-PEG4-FITC, Monovalent, proximal site; also called LG68) VH: EVKLQESGPGLVAPSQSLSVTCTVSGVSLPDYGVSWIRQPPRKGLEWLGVIWGSETTYYNSALKSRLTIIKDNSKSQVFLKMNSLQTDDTAIYYCAKHYYYGGSYAMDYWGQGTSVTVSS VL: DIQMTQTTSSLSASLGDRVTISCRASQDISKYLNWYQQKPDGTVKLLIYHTSRLHSGVPSRFSGSGSGTDYSLTISNLEQEDIATYFCQQGNTLPYTFGGGTKLEIKR
11.03

Note: attention shifts to another entry.
QUERY: Which pEC50 reading was recorded for the binder anti-CD19 (FMC63) Fab F-FITC (heavy chain K136) (Fab, V domains shown, position 136 of the whole heavy chain = pAzF conjugated with BCN-PEG4-FITC, Monovalent, distal site; also called HK136) VH: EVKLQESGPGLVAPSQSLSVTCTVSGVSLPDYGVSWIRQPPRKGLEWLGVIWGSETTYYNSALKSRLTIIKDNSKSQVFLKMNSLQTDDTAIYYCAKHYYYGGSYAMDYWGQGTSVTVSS VL: DIQMTQTTSSLSASLGDRVTISCRASQDISKYLNWYQQKPDGTVKLLIYHTSRLHSGVPSRFSGSGSGTDYSLTISNLEQEDIATYFCQQGNTLPYTFGGGTKLEIKR ?
RESULT: 11.04
